meta.source: the METLIN SMRT retention time set (Domingo-Almenara et al. 2019)

Assay: gradient 5% acetonitrile 3 min, to 50% in 2 min, to 85% in 15 min, held 3 min, 100 µL/min
Details: column: Zorbax Extend-C18 2.1 x 50 mm; eluents: water / acetonitrile, 0.1% formic acid
Entry flag: True if RP-LC retention time reaches 800 s; False if it does not.

Request: Given CCNC(=O)C1CCCN(c2nc3ncn(CC(=O)Nc4ccc(F)cc4F)c(=O)c3s2)C1 (centres undefined) , state whether its RP-LC retention time is at least 800 s.
Result: False

Further cases:
Request: RP-LC retention time >= 800 s for COc1cccc2cc(C(=O)N3CCN(c4ccccn4)CC3)oc12 ?
Result: False

Request: Dear colleague, could you confirm whether CCC(NC(=O)C1CCN(c2cnc3nccnc3c2)CC1)c1cccs1 (centres undefined) has RP-LC retention time at or above 800 s?
Result: False

Request: Check the entry Cc1nc2scc(C)n2c(=O)c1NC(=O)CCSc1ccccc1 : does RP-LC retention time equal or exceed 800 s?
Result: False

Request: Exam item: decide whether the reported RP-LC retention time for Cc1cccc(NC(=O)Cn2nc3n(c2=O)CCCC3)c1C is at least 800 s.
Result: False

Request: Textbook exercise: given the entry Cc1cccc(C)c1Nc1c(-c2ccc(F)cc2)nc2cnccn12 , state whether its RP-LC retention time is greater than or equal to 800 s.
Result: True

Request: // inclusive: RP-LC retention time at least 800 s? input: COc1ccc(C2C(C(=O)NCc3ccco3)c3cc(OC)c(OC)cc3C(=O)N2C)cc1 (centres undefined)
Result: False

Request: I'd appreciate it if you could say whether CCOc1ccc(CNC(=O)c2cc(S(=O)(=O)N3CCCC3)c(C)n2C)cc1 has RP-LC retention time at least equal to 800 s.
Result: True

Request: Dear colleague, could you confirm whether CCn1cc(C)c(C(=O)O)c1CC(=O)Nc1cc(F)ccc1F has RP-LC retention time at or above 800 s?
Result: True

Request: State whether the measured RP-LC retention time reaches 800 s, counting equality as reaching it, for CN(Cc1cccn1C)C(=O)NC1CCCC1
Result: False

Request: Entry CCc1cccc2cc([C@@H](O)CNC(C)(C)C)oc12 : is its RP-LC retention time no less than 800 s?
Result: False

Request: Does the reported RP-LC retention time for COc1ccc(C(=O)Nc2cccn3nc(C4CC4)nc23)cc1 fall at or above the 800 s mark?
Result: True

Request: Confirm if RP-LC retention time reported for the compound Cc1cc(NCCCn2ccnc2)n2nc(C(F)(F)F)c(-c3ccccc3)c2n1 is 800 s or above.
Result: False

Request: Identify whether the reported RP-LC retention time of the following compound is 800 s or greater: COc1ccc(-c2ncccc2CNS(=O)(=O)c2cc(C)cc(C)c2)cc1
Result: False

Request: Given the entry COc1cccc(CC(=O)N2CCC3(CC2)NC(=O)c2cc(F)ccc2N3C)c1 , answer whether its RP-LC retention time meets or surpasses 800 s.
Result: False

Request: Test whether the compound O=C(CN1C(=O)COc2ccc(C(=O)N3CCCC3)cc21)N1CCc2ccccc2C1 records RP-LC retention time of 800 s or higher.
Result: False

Request: For this compound, is measured RP-LC retention time 800 s or higher? CCC(C)NC(=O)C(=O)NCc1n[nH]c(=O)c2ccccc12 (centres undefined)
Result: False

* * *

Experiment: gradient 5% acetonitrile 3 min, to 50% in 2 min, to 85% in 15 min, held 3 min, 100 µL/min
Conditions: column: Zorbax Extend-C18 2.1 x 50 mm; eluents: water / acetonitrile, 0.1% formic acid
readout-name: RP-LC retention time (s)
Only the number, expressed in s, is required.

Here is how some compounds turned out for RP-LC retention time.
Request: Return RP-LC retention time for the following compound: CC(C)(C)NC(=O)c1cc2c(s1)N(CC1CC1)CCCC2
Result: 1200

Request: For O=C(NC1CC(=O)N(C2CC2)C1)c1cnc2ccccc2n1 (stereo not drawn) , write its RP-LC retention time.
Result: 594

Request: Please report RP-LC retention time for the following compound: NC(=O)C1CCN(C(=O)c2cc3cccnc3n(Cc3ccccc3F)c2=O)CC1
Result: 666

Request: Give the reported RP-LC retention time for this compound. CCNc1cc(N2CCC(CCC(=O)N3CCN(c4ncccn4)CC3)CC2)ncn1
Result: 626

Request: Read the entry COc1ccc(N2CCN(C(=O)C3CCN(S(=O)(=O)c4cn(C)cn4)CC3)CC2)cc1 and write its reported RP-LC retention time.
Result: 628

***
Request: Output RP-LC retention time of Cc1ccc(CC(=O)NC2CCN(c3ccc(C)c(C)c3)C2=O)cc1 (stereo not drawn)
Result: 904

Request: Identify measured RP-LC retention time corresponding to O=C(Nc1ccc(Cl)cc1)C1CCN(c2nccnc2Sc2ccccc2)CC1
Result: 1160

Request: Answer with the recorded RP-LC retention time of CCc1c(C(=O)O)nnn1-c1ccc(C)c(Cl)c1 only.
Result: 809

* * *

Assay: gradient 5% acetonitrile 3 min, to 50% in 2 min, to 85% in 15 min, held 3 min, 100 µL/min
Conditions: column: Zorbax Extend-C18 2.1 x 50 mm; eluents: water / acetonitrile, 0.1% formic acid
Classify as follows. Reported RP-LC retention time greater than or equal to 800 s: yes (1). Reported RP-LC retention time below: no (0).

Known results for compounds:
Request: Record CN(CC(=O)N1CC=C(c2ccccc2)CC1)S(=O)(=O)c1ccc2c(c1)CCCC(=O)N2 ; criterion: RP-LC retention time no lower than 800 s. Met?
Result: no (0)

Request: Kindly determine if RP-LC retention time recorded for CC1=C(c2ccccc2)S(=O)(=O)N=C1N1CCCN(C(=O)CC(C)(C)C)CC1 is above or exactly 800 s.
Result: yes (1)

Further cases:
Request: Identify whether the reported RP-LC retention time of the following compound is 800 s or greater: COc1cc(OC)cc(-c2nc(C3CC(=O)N(c4ccc(OC)c(OC)c4)C3)no2)c1 (stereo unspecified)
Result: yes (1)

* * *

Form field: RP-LC retention time (one value per entry).
Assay: gradient 5% acetonitrile 3 min, to 50% in 2 min, to 85% in 15 min, held 3 min, 100 µL/min
Settings: column: Zorbax Extend-C18 2.1 x 50 mm; eluents: water / acetonitrile, 0.1% formic acid
Answer with the number, then the unit.

Guide cases for RP-LC retention time, answers given:
Request: Entry O=C(C1CCN(c2nnc(-c3ccccc3)o2)CC1)N1CCCCC1 needs its RP-LC retention time filled in; supply it.
Result: 760 s

Request: Using known records, supply RP-LC retention time for CCCN1C(=O)Cc2ccccc2C1C(=O)N1CCOCC1 (centres undefined)
Result: 650 s

Request: Give RP-LC retention time for the following compound: CCOCCCNCc1ccc(-c2ccc(F)cc2)o1
Result: 672 s

Here's the next entry for you.
Request: Answer with the recorded RP-LC retention time for the compound listed here: COCCNC(=O)c1csc(N2CCN(c3cccc(OC)c3)CC2)n1
Result: 855 s

* * *

Assay: gradient 5% acetonitrile 3 min, to 50% in 2 min, to 85% in 15 min, held 3 min, 100 µL/min
Conditions: column: Zorbax Extend-C18 2.1 x 50 mm; eluents: water / acetonitrile, 0.1% formic acid
Use true (1) when the recorded RP-LC retention time is no lower than 800 s; use false (0) when it is lower.

Use these answered entries as a reference point.
Request: Say whether COc1ccc(NC(=O)C2CCCN(c3cnc4nccnc4c3)C2)c(C)c1 (stereo not given) shows RP-LC retention time of 800 s or more.
Result: false (0)

Request: Hi team, for COCCNC(=O)Cn1nc(-c2ccc(Cl)cc2)c2c(C)onc2c1=O , is the recorded RP-LC retention time at or above 800 s?
Result: false (0)

Request: Please indicate if the recorded RP-LC retention time for CN1C(=O)COc2ccc(-c3csc(NC(=O)Cc4ccccc4)n3)cc21 meets or exceeds 800 s.
Result: true (1)

More entries:
Request: Form field: RP-LC retention time at least 800 s? Entry: Cc1cc(NC2CCCCC2)nc(-n2nc(C)cc2C)n1
Result: true (1)

Request: Hello, I need to know if Cc1nc(NCc2ccco2)sc1C(=O)Nc1cccc(C(F)(F)F)c1 has measured RP-LC retention time not below 800 s. Thanks!
Result: true (1)

Request: Has O=C1CCCCC(Cc2cccnc2)(C(=O)NCc2ccc3c(c2)OCO3)N1 (stereo not given) a recorded RP-LC retention time greater than or equal to 800 s?
Result: false (0)

Request: Does RP-LC retention time meet or surpass 800 s for COc1ccc(CNC(=O)C2CCN(S(=O)(=O)c3cc(-c4noc(C)n4)cs3)CC2)cc1 ?
Result: true (1)

Request: Answer whether RP-LC retention time of O=c1n(Cc2ccccc2)nc2ccc(S(=O)(=O)N3CCCCC3)cn12 is greater than or equal to 800 s.
Result: true (1)

Request: Does RP-LC retention time meet or surpass 800 s for CCOC(=O)c1cc(S(=O)(=O)N2CCCC2C(=O)NCc2cccnc2)cn1C (stereo not given) ?
Result: false (0)

Request: Form field: RP-LC retention time at least 800 s? Entry: CCc1ccc(NC(=O)c2cc(=O)n(C)c3c2c(=O)n(C)c(=O)n3C)cc1
Result: true (1)

Request: Is reported RP-LC retention time greater than or equal to 800 s here: COc1cc(NC(=O)C2CCN(c3c(C(=O)N4CCC(C)CC4)cnc4snc(C)c34)CC2)cc(OC)c1
Result: true (1)

Request: I'd appreciate it if you could say whether Cc1ccc(CNC(=O)C2Cn3cccc3C(=O)N2CC(C)C)o1 (stereo not given) has RP-LC retention time at least equal to 800 s.
Result: false (0)

Request: Item COc1ccc(OCc2nnc3sc(C4COc5ccccc5O4)nn23)cc1 (stereo not given) with RP-LC retention time of 800 s or above?
Result: true (1)

Request: Check this molecule for RP-LC retention time at or above 800 s: CCC(=O)N1CCc2cc(N3CC(C(=O)NC(C)C)CC3=O)ccc21 (stereo not given)
Result: false (0)
